// reported AUC per item
- test name: In vivo pharmacokinetics in male CD1 mice
- Design: species or system mouse
- conditions used: male, CD1, mouse, plasma, 0.5 mg/kg; Table S6; IV, mice; read-out: AUC (ng*h/mL) IV

molecule	AUC
O=C(COc1ccc2cc(O)ccc2c1)NCCc1nc2ccccc2[nH]1	156 ng·h/mL

Task item: Please report the recorded AUC for O=C(Cn1ccnc1[N+](=O)[O-])NCc1ccccc1 [BZ, benznidazole, reference compound] .
Reply: 1020 ng·h/mL

Task item: Please answer likewise for CC(=O)Nc1cccc(OCC(=O)NCCc2nc3ccccc3[nH]2)c1
Reply: 916 ng·h/mL

----------
- test name: Experimental distribution coefficient (eLogD) by LC retention time
- Format: physicochemical
- conditions used: C18 column (LC retention time), pH 7.4, Table 5
// reported chromatographic logD per item
Answer with a bare number; do not write a unit.

Recorded chromatographic logD, per entry:
compound	chromatographic logD
O=C(CCc1ccccc1Br)NCCc1nc2ccccc2[nH]1	3.8
O=C(COc1ccccc1[N+](=O)[O-])NCCc1nc2ccccc2[nH]1	3.6
Cc1ccccc1OCC(=O)NCCc1nc2ccccc2o1	3.9
O=C(COc1ccc2ccccc2c1)NCCc1nc2ccccc2[nH]1	3.9

Task item: Please report the recorded chromatographic logD for N#Cc1ccccc1OCC(=O)NCCc1nc2ccccc2[nH]1 .
Reply: 2.6

Task item: Please answer likewise for O=C(COc1ccccc1Br)NCCc1nc2ccccc2[nH]1
Reply: 3.9

Task item: Please answer likewise for O=C(Cn1ccnc1[N+](=O)[O-])NCc1ccccc1 [BZ, benznidazole, reference compound]
Reply: 0.8

Task item: Please answer likewise for O=C(COc1ccc2ccccc2c1Br)NCCc1nc2ccccc2[nH]1
Reply: 4.4

Task item: Please answer likewise for O=C(COc1ccc(Br)cc1)NCCc1nc2ccccc2[nH]1
Reply: 2.8

Task item: Please answer likewise for C=CCCn1c(CCNC(=O)COc2ccccc2Cl)nc2ccccc21
Reply: 4.1

Task item: Please answer likewise for Cc1ccccc1OCC(=O)NCCc1nc2ccccc2[nH]1
Reply: 3.6
